- ASSAY DETAILS: First-in-human trial: pharmacokinetics in plasma and urine
- Type: in vivo
- ASSAY SETUP: human, plasma, oral, 45 mg, Schedule 1, 45 mg, Day 1, N=3; median (range); read-out: T1/2 (converted)
OBSERVABLE: half-life (h)
Give bare numbers, in h.

Challenge: Would you kindly share the measured half-life for `COc1cccc2cc(-c3nc([C@H]4CC[C@H](C(=O)O)CC4)n4ncnc(N)c34)[nH]c12` ?
Response given: 7.65

---

- ASSAY DETAILS: First-in-human trial: pharmacokinetics in plasma and urine
- Type: in vivo
- ASSAY SETUP: human, plasma, oral, 160 mg, Schedule 1, 160 mg, Day 3, N=5; median (range); read-out: T1/2 (converted)
OBSERVABLE: half-life (h)
Numbers only, in h.

Challenge: What value of half-life has been reported for the following molecule? `COc1cccc2cc(-c3nc([C@H]4CC[C@H](C(=O)O)CC4)n4ncnc(N)c34)[nH]c12`
Response given: 11.9
